- Tested on: T47D
- Assay details: Cytotoxicity against human T47D cells assessed as growth inhibition after 48 hrs by methylene blue staining-based assay
- Format: functional, cell-based

>  <Structure string>
COc1ccc2c(c1OC)CCn1c[n+]3c(c1-2)-c1ccc(OC)c(OC)c1CC3

>  <IC50 / µM>
13.5

$$$$
>  <Structure string>
COc1cc2c(cc1OC)-c1c3[n+](cn1CC2)CCc1cc(OC)c(OC)cc1-3

>  <IC50 / µM>
34

$$$$
>  <Structure string>
COc1ccc2c(c1)CCn1c[n+]3c(c1-2)-c1ccc(OC)cc1CC3

>  <IC50 / µM>
1

$$$$

Source: ChEMBL document CHEMBL3352667
